Values compiled from the supplement of paper PMC12783771.

Exercise: for every item that follows, state its recorded sfGFP reporter fluorescence.
B1: library; numbered along this chain (parent)
chain: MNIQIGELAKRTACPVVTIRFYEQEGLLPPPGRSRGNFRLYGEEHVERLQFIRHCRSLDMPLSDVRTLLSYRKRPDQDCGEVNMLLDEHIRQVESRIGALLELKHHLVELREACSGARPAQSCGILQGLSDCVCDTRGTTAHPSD

variants of: B1; experiment: sfGFP reporter fluorescence (15 h) (µM FITC); higher = stronger transcriptional activation; conditions: library round: Round 0; ligand: 30 µM Zn
One number for each entry.

For the variant shown here, C55V , give the reported sfGFP reporter fluorescence.
0.273

For the variant shown here, I97L , give the reported sfGFP reporter fluorescence.
0.842

For the variant shown here, P143S , give the reported sfGFP reporter fluorescence.
0.842

Items follow; give sfGFP reporter fluorescence for each.
1. Y22Q
2. D64K G128I
3. C79H
4. L101A

1. 0.0607
2. 4.45
3. 0.0559
4. 0.555

Items follow; give sfGFP reporter fluorescence for each.
1. Y41C
2. C123N

1: 0.0654; 2: 0.055

Items follow; give sfGFP reporter fluorescence for each.
1. V16N
2. Y41A
3. L110A
4. C134L
5. C79I

[0.487, 0.0651, 0.0729, 1.3, 0.0539]

Items follow; give sfGFP reporter fluorescence for each.
1. L85M
2. R111V
3. D64K K104V
4. C134S

[0.597, 0.483, 4.04, 1.22]

Items follow; give sfGFP reporter fluorescence for each.
1. L62E
2. E94D

1: 0.0658; 2: 0.32

Items follow; give sfGFP reporter fluorescence for each.
1. H89I
2. L126N

1: 0.0594; 2: 0.0533

Items follow; give sfGFP reporter fluorescence for each.
1. I97Q
2. P30I
3. R20Q
4. V108C
5. D64R
6. E23A
7. P30N

1: 0.287; 2: 0.926; 3: 0.074; 4: 1.04; 5: 1.4; 6: 0.104; 7: 0.628

Items follow; give sfGFP reporter fluorescence for each.
1. I3C
2. L58N
3. R39Q
4. R111E
5. R20E
6. I97P

[0.774, 0.0548, 0.0583, 0.267, 0.0618, 0.135]
